The reported numbers originate from patent US20240360228A1.

Listed here are binders together with their documented % Blocking.
# Test Target: T1, human chemokine (C-C motif) receptor 8 (CCR8) (human, UniProt P51685 1-355)
# T1 construct: On human peripheral blood lymphocytes / PBMC (native) or on human CCR8 GFP-transfected Ba/F3 cells; also called hCCR8; human CCR8
# T1 sequence (P51685 whole entry): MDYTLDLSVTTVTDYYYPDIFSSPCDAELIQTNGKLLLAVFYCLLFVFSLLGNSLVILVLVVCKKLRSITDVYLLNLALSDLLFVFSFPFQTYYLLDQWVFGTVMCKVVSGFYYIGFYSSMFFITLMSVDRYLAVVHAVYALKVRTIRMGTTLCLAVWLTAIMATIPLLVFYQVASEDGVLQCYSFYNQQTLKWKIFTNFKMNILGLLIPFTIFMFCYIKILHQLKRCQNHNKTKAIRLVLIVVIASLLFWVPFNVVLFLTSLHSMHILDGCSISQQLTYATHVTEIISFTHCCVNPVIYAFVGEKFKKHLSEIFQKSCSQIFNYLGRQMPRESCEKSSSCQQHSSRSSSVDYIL
# Procedure Details: flow cytometry blocking, PBMC CCR8+ CD4+ cells; competitor PE-AB10 (its MFI is read)

{"Binder": "AB3 (antibody, V domains shown, Hybridoma monoclonal; also called antibody 3; clone 3) VH: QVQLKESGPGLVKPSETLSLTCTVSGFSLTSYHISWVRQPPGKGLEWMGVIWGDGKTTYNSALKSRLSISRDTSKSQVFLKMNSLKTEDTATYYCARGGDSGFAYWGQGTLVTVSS VL: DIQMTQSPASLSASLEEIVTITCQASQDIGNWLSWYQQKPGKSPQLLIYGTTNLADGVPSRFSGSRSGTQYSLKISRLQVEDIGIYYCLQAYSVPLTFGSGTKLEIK", "% Blocking": "-1.1%"}
{"Binder": "AB11 (antibody, V domains shown, Hybridoma monoclonal; also called antibody 11; clone 11) VH: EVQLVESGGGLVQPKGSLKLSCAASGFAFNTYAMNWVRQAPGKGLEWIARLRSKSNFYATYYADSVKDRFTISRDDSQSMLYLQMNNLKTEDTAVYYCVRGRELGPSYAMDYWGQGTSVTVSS VL: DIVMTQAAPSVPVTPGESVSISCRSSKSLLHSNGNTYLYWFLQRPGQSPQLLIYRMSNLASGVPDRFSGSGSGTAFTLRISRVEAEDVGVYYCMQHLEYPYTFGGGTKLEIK", "% Blocking": "34.5%"}
{"Binder": "AB8 (antibody, V domains shown, Hybridoma monoclonal; also called antibody 8; clone 8) VH: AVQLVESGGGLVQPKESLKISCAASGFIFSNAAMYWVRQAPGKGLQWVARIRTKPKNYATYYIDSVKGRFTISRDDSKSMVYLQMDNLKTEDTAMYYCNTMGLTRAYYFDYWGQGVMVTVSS VL: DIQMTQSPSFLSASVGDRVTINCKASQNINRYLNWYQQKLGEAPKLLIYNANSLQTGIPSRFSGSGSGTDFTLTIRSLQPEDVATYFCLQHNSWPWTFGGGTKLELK", "% Blocking": "-81.3%"}
{"Binder": "AB12 (antibody, V domains shown, Hybridoma monoclonal; also called antibody 12; clone 12) VH: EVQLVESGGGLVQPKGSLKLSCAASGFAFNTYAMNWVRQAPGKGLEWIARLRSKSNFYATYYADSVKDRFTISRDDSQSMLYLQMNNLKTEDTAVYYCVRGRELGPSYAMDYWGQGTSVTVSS VL: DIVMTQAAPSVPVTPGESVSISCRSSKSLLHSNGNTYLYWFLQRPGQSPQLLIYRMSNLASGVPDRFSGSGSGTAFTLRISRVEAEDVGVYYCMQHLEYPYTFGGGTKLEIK", "% Blocking": "5.71%"}
{"Binder": "AB15 (antibody, V domains shown, Hybridoma monoclonal; also called antibody 15; clone 15) VH: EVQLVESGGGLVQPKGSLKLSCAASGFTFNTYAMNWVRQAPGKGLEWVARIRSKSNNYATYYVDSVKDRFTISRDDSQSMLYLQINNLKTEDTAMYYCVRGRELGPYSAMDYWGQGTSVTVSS VL: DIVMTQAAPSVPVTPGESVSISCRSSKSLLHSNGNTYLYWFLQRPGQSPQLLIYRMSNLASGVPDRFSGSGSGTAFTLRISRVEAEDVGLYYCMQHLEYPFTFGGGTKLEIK", "% Blocking": "1.55%"}
{"Binder": "AB5 (antibody, V domains shown, Hybridoma monoclonal; also called antibody 5; clone 5) VH: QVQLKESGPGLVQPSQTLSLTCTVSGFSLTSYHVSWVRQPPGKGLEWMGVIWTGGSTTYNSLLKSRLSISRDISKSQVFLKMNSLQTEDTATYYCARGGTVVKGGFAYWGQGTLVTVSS VL: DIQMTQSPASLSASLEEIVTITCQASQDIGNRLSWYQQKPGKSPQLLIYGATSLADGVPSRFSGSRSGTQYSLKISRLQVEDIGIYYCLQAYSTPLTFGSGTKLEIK", "% Blocking": "-7.11%"}
{"Binder": "AB4 (antibody, V domains shown, Hybridoma monoclonal; also called antibody 4; clone 4) VH: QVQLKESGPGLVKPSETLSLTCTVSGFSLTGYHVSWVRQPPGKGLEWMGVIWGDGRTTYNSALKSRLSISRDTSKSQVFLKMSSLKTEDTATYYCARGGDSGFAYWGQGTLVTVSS VL: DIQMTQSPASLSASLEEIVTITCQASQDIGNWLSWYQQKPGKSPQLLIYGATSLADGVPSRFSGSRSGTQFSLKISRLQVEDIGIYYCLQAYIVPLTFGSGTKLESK", "% Blocking": "-12.2%"}
